Measured viability, listed per entry for reference.
measurement.protocol: growth inhibitors of H69AR lung tumor, primary screen, human, duplicate replicates (AID 580);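 note: 100% = mean luminescence of untreated wells and 0% = no signal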
run.conditions: H69AR lung tumor cells viability, ATP luminescence, 72 h; at 10 µM; stronger effect = lower value
Reply numerically in %, unit not repeated.

Previously resolved entries follow.
1. O=C(Nc1ccccc1N1CCCCC1)c1ncoc1-c1ccc(F)cc1	84.6
2. O=C(C1CCCCC1)N1CCC(c2nc3c(nnn3Cc3c(F)cccc3Cl)c(=O)[nH]2)CC1	71.3
3. O=C(O)CCCc1nc(-c2ccccc2)no1	97

Answer with the recorded viability for the compound listed here: CN(C1CCS(=O)(=O)C1)S(=O)C12CC3CC(CC(C3)C1)C2 (stereo not given) 99.9

Answer with the recorded viability for the compound listed here: COc1ccc(OC(C)C(=O)N2CC(C)OC(C)C2)cc1 (stereo not given) 100

Answer with the recorded viability for the compound listed here: CS(=O)(=O)N1CCN(CC2CC3C=CC2C3)CC1 (stereo not given) 101

Answer with the recorded viability for the compound listed here: `CCOc1ccc(NC(=O)CSc2nnc(Cc3cccn3C)n2-c2ccc(OC)cc2)cc1` 90.6

Answer with the recorded viability for the compound listed here: `CCOC(=O)N1CCC(O)(c2cc(C)c(C)cc2C)CC1` 99.4

Answer with the recorded viability for the compound listed here: `CC(=O)c1ccc(NC(=O)c2noc3c2CCCCC3)cc1` 98

Answer with the recorded viability for the compound listed here: `CCOC(=O)CSc1nnc(-c2cccnc2)n1Cc1ccccc1` 96.4

Answer with the recorded viability for the compound listed here: `O=c1[nH]c(SCc2ccccc2Cl)nc2c1CCCC2` 89.5

Answer with the recorded viability for the compound listed here: COc1ccc(-c2cc(C(F)F)n3ncc(C(=O)NCC4CCCO4)c3n2)cc1 (stereo not given) 73.6

Answer with the recorded viability for the compound listed here: COc1ccc(/C(O)=C2/C(=O)C(=O)N(CC3CCCO3)C2c2cccc(OC)c2)cc1 (stereo not given) 94.2

Answer with the recorded viability for the compound listed here: `O=C(NC1=NCCS1)NC12CC3CC(CC(C3)C1)C2` 93

Answer with the recorded viability for the compound listed here: `Cc1cc(-c2nc3ncccc3o2)ccc1N` 90.4

Answer with the recorded viability for the compound listed here: `Cn1c(-c2cc(Br)ccc2O)n[nH]c1=S` 92.9

Answer with the recorded viability for the compound listed here: CCOC(=O)c1c(C)[nH]c(C(=O)COC(=O)C2CC2C)c1C (stereo not given) 102

Answer with the recorded viability for the compound listed here: `Cn1c(=O)c2c(nc(SCc3nn[nH]n3)n2Cc2ccccc2F)n(C)c1=O` 90.9

Answer with the recorded viability for the compound listed here: `O=C(C1CCC1)N1CCc2cc(S(=O)(=O)Nc3ccc4c(c3)OCO4)ccc21` 91.6

Answer with the recorded viability for the compound listed here: `COc1cc(-c2c(C#N)c(N)nc3c2CCCC3)cc(OC)c1OC` 76.4

---

measurement.protocol: reducers of endogenous Her2 protein level, primary screen, SKBR3 breast tumor cells, AlphaScreen, ATP viability (AID 461);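 note: percent of carrier control wells set as 100% viability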
run.conditions: 18-24 h, measured here: SKBR3 viability, ATP luminescence, at 10 µM
readout.type: viability (%)
Reply numerically in %, unit not repeated.

Previously resolved entries follow.
1. CCCN(CCC)CCNC(=O)C(NS(=O)(=O)c1ccc2c(c1)CCC(=O)N2)c1ccccc1 (configuration not stated)	87.5
2. O=C(CN1C(=O)C2C3C=CC(C3)C2C1=O)NCc1ccc2c(c1)OCO2 (configuration not stated)	102
3. CCCCOc1ccc(-c2nnn(CC(=O)NCc3ccco3)n2)cc1	82.5

Answer with the recorded viability for the compound listed here: O=C(NCc1cccnc1)C1c2ccccc2C(=O)N1Cc1ccco1 (configuration not stated) 94.5

Answer with the recorded viability for the compound listed here: O=C1NC2=C(C(=O)CCC2)C(c2ccc3ncccc3c2)N1 (configuration not stated) 106

Answer with the recorded viability for the compound listed here: O=C(Nc1ccc(O)cc1)C1CCCN1S(=O)(=O)c1ccc(F)cc1 (configuration not stated) 97.5

---

measurement.protocol: reversal of MRP1-mediated doxorubicin resistance, pilot screen, H69AR cells, doxorubicin co-treatment (AID 601)
run.conditions: H69AR cells + 2 uM doxorubicin, CellTiter-Glo, 72 h; measured here: viability with 2 uM doxorubicin; at 10 µM; stronger effect = lower value
viability strictly less than 90% = Yes. Otherwise No.

1) CCOC(=O)c1ccc2nc(NC(NC(C)=O)(C(=O)OC)C(F)(F)F)sc2c1 (stereo unspecified)	Yes
2) CCc1nnc2n1N=C(c1ccc(-c3ccc(Cl)cc3Cl)o1)CS2	Yes

Decide: viability of Cc1cccc(C2CC(c3ccc(Br)cc3)Nc3nc(N)nn32)c1 (stereo unspecified) strictly below 90%? No

Decide: viability of `N#CC1=C(N)SC(N)=C(C#N)C1CCc1ccccc1` strictly below 90%? Yes

Decide: viability of `CCCC(=O)Nc1cccc(NC(=O)CN2CCN(c3ccccc3OC)CC2)c1` strictly below 90%? Yes

Decide: viability of CC1=C(n2nnc3ccccc32)C(c2ccccc2)C(C#N)=C(N)O1 (stereo unspecified) strictly below 90%? Yes

Decide: viability of Cc1ccccc1N(CC(=O)NCC1CCCO1)C(=O)C1(C)CC(=O)N=C2C=CC=CN21 (stereo unspecified) strictly below 90%? No

Decide: viability of `COc1cc(-c2nnc(SCc3c(F)cccc3Cl)o2)cc(OC)c1OC` strictly below 90%? Yes

Decide: viability of `O=C(O)[C@@H]1CCCN1c1ncnc2sc3c(c12)CCC3` strictly below 90%? No

Decide: viability of `CNC(=O)CSc1nnc(-c2cc3c(C)nn(-c4ccccc4)c3s2)n1C` strictly below 90%? Yes

Decide: viability of `Cn1c(=O)c(C(=O)Nc2cccnc2)c(O)c2ccccc21` strictly below 90%? No

---

measurement.protocol: growth inhibitors of H69AR lung tumor, primary screen, human, duplicate replicates (AID 580);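 note: 100% = mean luminescence of untreated wells and 0% = no signal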
run.conditions: H69AR lung tumor cells viability, ATP luminescence, 72 h; at 10 µM; stronger effect = lower value
readout.type: viability (%)
Reply numerically in %, unit not repeated.

Previously resolved entries follow.
1) CCOC(=O)c1c(-c2ccc(C)o2)csc1NC(=O)COC(=O)c1cccs1	84.4
2) O=C(O)CCNc1nc(-c2ccccc2)nc2ccccc12	91.1
3) Cc1nc2ccccc2cc1C(=O)NCc1ccco1	93.3
4) CC(C)=CCCC(C)N(C=O)C(C)CCC=C(C)C (configuration not stated)	87.8
5) CN1C(=O)C2(NCCc3c2[nH]c2ccccc32)c2ccccc21 (configuration not stated)	109
6) O=C(CSC1=NC(=O)C(Cc2ccccc2)C(=O)N1)NC1CCCCC1 (configuration not stated)	91.7
7) CCOC(=O)c1cnc(-n2nc(C)cc2C)nc1Nc1cccc(C(C)=O)c1	88
8) COc1ccc2c(CC(=O)Nc3ccc(OC)c(NS(=O)(=O)c4ccc(F)cc4)c3)coc2c1	86.3
9) CCN(CC)c1ncc(C)c(=O)[nH]1	88.8
10) CCC(=O)N1CCc2cc(S(=O)(=O)CCC(=O)Nc3ccc(F)c(F)c3)ccc21	92.3

Answer with the recorded viability for the molecule listed here: `CCCCCc1c(C)nc(Nc2nc(C)c3cc(OC)ccc3n2)[nH]c1=O` 78

Answer with the recorded viability for the molecule listed here: O=C(O)C1CCCN1S(=O)(=O)c1ccc2ccccc2c1 (configuration not stated) 95.6

Answer with the recorded viability for the molecule listed here: `O=C(CNS(=O)(=O)c1ccc(Br)s1)N1CCCC1` 99.9

Answer with the recorded viability for the molecule listed here: `Cc1sc2ncnc(OCC(=O)N3CCN(S(=O)(=O)c4ccc(Cl)cc4)CC3)c2c1C` 84.8

Answer with the recorded viability for the molecule listed here: `O=C(c1cnn2c(C(F)(F)F)cc(-c3ccco3)nc12)N1CCc2ccccc2C1` 89.6

Answer with the recorded viability for the molecule listed here: `N#Cc1cnc(SCC(=O)Nc2ccccc2C(F)(F)F)nc1N` 90.2

Answer with the recorded viability for the molecule listed here: `Cc1cc(NC(=O)COc2cccc(Oc3ccccc3)c2)no1` 22.4

---

Measured viability, listed per entry for reference.
measurement.protocol: growth inhibitors of H69AR lung tumor, primary screen, human, duplicate replicates (AID 580);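 note: 100% = mean luminescence of untreated wells and 0% = no signal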
run.conditions: H69AR lung tumor cells viability, ATP luminescence, 72 h; at 10 µM; stronger effect = lower value
The source made the active and inactive calls.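 Rule for the calls: active = viability at or under a set limit in both replicates, limit being median viability minus 3 SD (cut at about 48% in these data, passing the limit was not always enough); inconclusive = at or under the limit in just one replicate; inactive = at or above the limit in both replicates.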

Answer with the recorded viability for the molecule listed here: `COC(=O)c1ccc(-c2sc3nc(N4CCOCC4)c4c(c3c2N)CCCC4)o1` 91% (inactive)

Answer with the recorded viability for the molecule listed here: COC(=O)c1ccc(NC(=O)C(C)N2C(=O)c3ccccc3C2=O)cc1 (configuration not stated) 108% (inactive)

Answer with the recorded viability for the molecule listed here: `COc1ccc(C(=O)Nc2ccc(S(=O)(=O)NC(C)=O)cc2)cc1` 93.1% (inactive)

Answer with the recorded viability for the molecule listed here: Cc1ccccc1N(C)S(=O)(=O)c1ccc2[nH]cc(C(=O)NCC3CCCO3)c(=O)c2c1 (configuration not stated) 91.7% (inactive)

Answer with the recorded viability for the molecule listed here: `COc1ccc(N2CCN(c3nc4c(c(=O)[nH]c(=O)n4C)n3CCCc3ccccc3)CC2)cc1` 84.9% (inactive)

Answer with the recorded viability for the molecule listed here: CC(C)=CCCC(C)NC(=O)NC1CCCCC1 (configuration not stated) 107% (inactive)

This collection of values is drawn from PubChem BioAssay.
